The measured values listed here are drawn from patent US20240238425A1.

System: HiBiT-HSD17β13 fusion protein (N-terminal HiBiT-tagged HSD17β13 isoform D) in Huh7 HiBiT-HSD17β13 OE cells
protocolText: Whole-cell Huh7-HSD17B13 HiBiT assay (degrader potency and maximal efficacy, luminescence readout)
Format: cell-based, human
appliedConditions: 24 hour incubation, max. concentration 1 μM, geometric mean, * = geometric mean for all forms tested (parent and salt forms)
Structures can show the parent of a compound that is named as a salt.
I'd appreciate it if you could supply Huh7_HIBIT-HSD17β13_DC50 GMean Asymptote Maximum values for the items below.
Give bare numbers, in %.

Take each entry in turn and give its Huh7_HIBIT-HSD17β13_DC50 GMean Asymptote Maximum.
1. Cn1c(=O)n(C2CCC(=O)NC2=O)c2ccc(CCCN3CCN(c4ncc(-c5ccn6cc(C78CCC(CNC(=O)c9cc(F)c(O)c(F)c9F)(CC7)CC8)nc6c5)cn4)CC3)cc21.O=C(O)C(F)(F)F (racemic)
2. Cn1c(=O)n(C2CCC(=O)NC2=O)c2ccc(CCCN3CCN(c4ccc5cn([C@]67CC[C@](CNC(=O)c8cc(F)c(O)c(F)c8F)(CC6)CC7)nc5c4)CC3)cc21 (mixture of isomers)
3. Cc1ccc(C(=O)N2CCC(OC3CCN(c4ncc(-c5ccc6cn([C@H]7CC[C@H](CNC(=O)c8cc(F)c(O)c(F)c8F)CC7)nc6c5)cn4)CC3)CC2)cc1N1CCC(=O)NC1=O [Example 57, trifluoroacetate salt]
4. Cc1ccc(C(=O)N2CCC3(CCC(N4CCN(c5ccc6cn([C@H]7CC[C@H](CNC(=O)c8cc(F)c(O)c(F)c8F)CC7)nc6c5)CC4)CC3)CC2)cc1N1CCC(=O)NC1=O [Example 111, trifluoroacetate salt]
5. Cc1sc([C@]23CC[C@](CNC(=O)c4cc(F)c(O)c(F)c4F)(CC2)CC3)nc1-c1ccnc(N2CCN(CCCc3ccc4c(c3)n(C)c(=O)n4C3CCC(=O)NC3=O)CC2)n1 (mixture of isomers)

## Output
1: 84; 2: 84; 3: 76; 4: 80; 5: 73

Hi team, please reply with Huh7_HIBIT-HSD17β13_DC50 GMean Asymptote Maximum for each item in this list.
1. Cn1c(=O)n(C2CCC(=O)NC2=O)c2cccc(CN3CCN(c4ccc5cn([C@H]6CC[C@H](CNC(=O)c7cc(F)c(O)c(F)c7F)CC6)nc5c4)CC3)c21 (mixture of isomers) [Example 52, trifluoroacetate salt]
2. Cn1c(=O)n(C2CCC(=O)NC2=O)c2ccc(CN3CCOC4(CCN(c5ccc6cn([C@H]7CC[C@H](CNC(=O)c8cc(F)c(O)c(F)c8F)CC7)nc6c5)CC4)C3)cc21 (mixture of isomers) [Example 77, trifluoroacetate salt]
3. Cn1c(=O)n(C2CCC(=O)NC2=O)c2ccc(CCCN3CCN(c4nccc(-c5csc(C67CCC(CNC(=O)c8cc(F)c(O)c(F)c8F)(CC6)CC7)n5)n4)CC3)cc21 (racemic)
4. Cn1c(=O)n(C2CCC(=O)NC2=O)c2ccc(CCCN3CCN(c4cnc(-c5nc([C@]67CC[C@](CNC(=O)c8cc(F)c(O)c(F)c8F)(CC6)CC7)no5)cn4)CC3)cc21 (mixture of isomers) [Example 69, trifluoroacetate salt]

## Output
1. 80
2. 86
3. 82
4. 88

---

Give Huh7_HIBIT-HSD17β13_DC50 GMean Asymptote Maximum for every item shown.
Test system: HiBiT-HSD17β13 fusion protein (N-terminal HiBiT-tagged HSD17β13 isoform D) in Huh7 HiBiT-HSD17β13 OE cells
protocolText: Whole-cell Huh7-HSD17B13 HiBiT assay (degrader potency and maximal efficacy, luminescence readout)
Assay type: cell-based, human
appliedConditions: 24 hour incubation, max. concentration 1 μM, geometric mean, * = geometric mean for all forms tested (parent and salt forms)
Structures can show the parent of a compound that is named as a salt.
Numbers only, in %.

* Cc1ccc(C(=O)N2CCC(CCCN3CCN(c4ccc5cn([C@H]6CC[C@H](CNC(=O)c7cc(F)c(O)c(F)c7F)CC6)nc5c4)CC3)CC2)cc1N1CCC(=O)NC1=O [Example 40, trifluoroacetate salt] | 74
* Cn1c(=O)n(C2CCC(=O)NC2=O)c2ccc(CCCN3CCN(c4ccc(-c5noc(C67CCC(CNC(=O)c8cc(F)c(O)c(F)c8F)(CC6)CC7)n5)nn4)CC3)cc21.O=C(O)C(F)(F)F (racemic) [Example 15] | 85
* O=C1CCN(c2cnn3cc(CCCN4CCOC5(CCN(c6ccc7cn([C@H]8CC[C@H](CNC(=O)c9cc(F)c(O)c(F)c9F)CC8)nc7c6)CC5)C4)ccc23)C(=O)N1 [Example 28] | 90
* Cl.Cn1c(=O)n(C2CCC(=O)NC2=O)c2ccc(CN3CCN(c4ncc(-c5ccc6cn([C@H]7CC[C@H](CNC(=O)c8cc(F)c(O)c(F)c8F)CC7)nc6c5)cn4)CC3)cc21 (mixture of isomers) [Example 26] | 82

We next turn to a different compound, shown below.
## Input Return the recorded Huh7_HIBIT-HSD17β13_DC50 GMean Asymptote Maximum value; entry: Cn1nc(N2CCC(=O)NC2=O)c2ccc(CCCN3CCN(c4nccc(-c5nc([C@]67CC[C@](CNC(=O)c8cc(F)c(O)c(F)c8F)(CC6)CC7)no5)n4)CC3)cc21 [Example 133, trifluoroacetate salt]
## Output 73
